meta.source: ChEMBL document CHEMBL1143576

Tested on: RH7777
Experiment: Antiproliferative effect against RH7777 cell line using sulforhodamine B(SRB) assay
Assay type: functional, cell-based
Conditions: Rattus norvegicus
What pIC50 was measured for each of the following?
Scale: pIC50 equals -log10([C]), with [C] in mol/L.

QUERY: Fill in the blank: the reported pIC50 of CCCCCCCCCCCCCCCCCCNC(=O)[C@H]1CSC(c2cc(OC)c(OC)c(OC)c2)N1 (some centres not stated) is ____.
RESULT: 4.94

QUERY: Query CCCCCCCCCCCCCCCCCCNC(=O)[C@H]1CSC(c2ccc(NC(C)=O)cc2)N1 (some centres not stated) next
RESULT: 4.68

QUERY: Same for CCCCCCCCCCCCCCCCCCNC(=O)[C@H]1CSC(c2cccnc2)N1 (some centres not stated)
RESULT: 4.98

QUERY: What do you have for CCCCCCCCCCCCCCNC(=O)[C@H]1CSC(c2ccccc2)N1.Cl (some centres not stated) ?
RESULT: 5.47

QUERY: Now try CCCCCCCCCCCCCCCCCCNC(=O)[C@H]1CSC(c2ccccc2)N1.Cl (some centres not stated) .
RESULT: 4.59

QUERY: Quick one: CCCCCCCNC(=O)[C@H]1CSC(c2ccccc2)N1 (some centres not stated)
RESULT: 4.28

* * *

Test system: RH7777
Test: Antiproliferative effect against RH7777 cell line using sulforhodamine B(SRB) assay
Format: functional, cell-based
Details: Rattus norvegicus
REPORTED ENDPOINT: pIC50
Note on pIC50: it is the negative log10 of concentration, concentration in mol/L.

QUERY: What is its pIC50 for RH7777? Entry: CCCCCCCCCCCCCCCCCCNC(=O)[C@H]1CSC(c2ccc(F)c(Br)c2)N1 (stereo not given in full)
RESULT: 4.70

QUERY: Next record, please: CCCCCCCCCCCCCCCCCCNC(=O)[C@H]1CSC(c2ccc(OC)c(OC)c2)N1 (stereo not given in full)
RESULT: 4.99

QUERY: Next: CCCCCCCCCCCCCCCCCCNC(=O)[C@H]1CSC(c2ccoc2)N1 (stereo not given in full)
RESULT: 4.98

QUERY: Same thing, different compound: CCCCCCCCCCCCCCCCCCNC(=O)[C@H]1CSC(c2ccc(F)cc2)N1 (stereo not given in full)
RESULT: 4.76

* * *

Test system: TSU
Assay: Antiproliferative activity against prostate cancer TSU-Pr1 cell line using sulforhodamine B(SRB) assay
Format: functional, cell-based
Settings: Homo sapiens
Sorting guide: entries reporting IC50 beneath 10 µM go in the y pile, the rest go in the n pile.

QUERY: State whether 10 µM exceeds IC50 recorded for CCCCCCCCCCCCCCCCCCNC(=O)[C@H]1CSC(Cc2ccccc2)N1 (stereo partly specified) .
RESULT: n

QUERY: And CCCCCCCCCCCCCCNC(=O)[C@H]1CSC(c2ccccc2)N1.Cl (stereo partly specified) ?
RESULT: y

QUERY: Another compound: CCCCCCCCCCCCCCCCCCNC(=O)[C@H]1CSC(CCCCCCCCCCCC)N1 (stereo partly specified)
RESULT: n

QUERY: Moving on to the next compound: CCCCCCCNC(=O)[C@H]1CSC(c2ccccc2)N1 (stereo partly specified)
RESULT: n

QUERY: Note, next up: CCCCCCCCCCCCCCCCCCNC(=O)[C@H]1CSC(c2ccc(Br)cc2)N1 (stereo partly specified)
RESULT: n

QUERY: What would you report for CCCCCCCCCCCCCCCCCCNC(=O)[C@H]1CSC(c2ccccc2)N1S(C)(=O)=O (stereo partly specified) ?
RESULT: n

* * *

Tested on: PPC-1
Experiment: Antiproliferative activity against prostate cancer PPC-1 cell line using sulforhodamine B(SRB) assay
Format: functional, cell-based
Conditions: Homo sapiens
Can you tell me pIC50 for the items I'm about to list?
# pIC50 is unitless: minus log10 of the molar concentration; print number only

QUERY: Which measured pIC50 value corresponds to CCCCCCCCCCCCCCCCCCNC(=O)[C@H]1CSC(c2ccc(F)cc2)N1 (stereo partly specified) ?
RESULT: 5.68

QUERY: Moving on to CCCCCCCCCCCCCCCCCCNC(=O)[C@H]1CSC(c2ccc(OC)cc2)N1 (stereo partly specified)
RESULT: 5.82

QUERY: Entry to check: CCCCCCCCCCCCCCCCCCNC(=O)[C@H]1CSC(c2ccoc2)N1 (stereo partly specified)
RESULT: 5.96

QUERY: Let us now turn to CCCCCCCCCCCCCCCCCCNC(=O)[C@H]1CSC(c2c[nH]c3ccccc23)N1 (stereo partly specified)
RESULT: 5.89

QUERY: Next up: CCCCCCCCCCCCCCCCCCCNC(=O)[C@H]1CSC(c2ccccc2)N1.Cl (stereo partly specified)
RESULT: 4.77

QUERY: Then CCCCCCCCCCCCCCCCCCNC(=O)[C@H]1CSC(c2cc(F)cc(F)c2)N1 (stereo partly specified) ?
RESULT: 4.97

QUERY: Same for CCCCCCCCCCCCCCCCCCNC(=O)[C@H]1CSC(c2ccc(F)c(Br)c2)N1 (stereo partly specified)
RESULT: 5.33

QUERY: Try CCCCCCCCCCCCCCCCCCNC(=O)[C@H]1CSC(c2cccc(O)c2)N1 (stereo partly specified) next.
RESULT: 5.92

QUERY: What do we get for CCCCCCCCCCCCCCCCCCNC(=O)[C@H]1CSC(c2c(Cl)cccc2Cl)N1 (stereo partly specified) ?
RESULT: 4.77

QUERY: Moving on to the next compound: CCCCCCCCCCCCCCCCCCNC(=O)[C@H]1CSC(c2ccc([N+](=O)[O-])cc2)N1 (stereo partly specified)
RESULT: 4.82

QUERY: Then what about the compound CCCCCCCCCCCCCCCCCCNC(=O)[C@H]1CSC(c2cc(OC)c(OC)c(OC)c2)N1 (stereo partly specified) ?
RESULT: 6.32

QUERY: Now this one: CCCCCCCCCCCCCCCCCCNC(=O)[C@H]1CSC(c2ccc(N(C)C)cc2)N1 (stereo partly specified)
RESULT: 5.96

QUERY: And what about the compound CCCCCCCCCCCCCCCCCCNC(=O)[C@H]1CSC(c2ccc(C#N)cc2)N1 (stereo partly specified) ?
RESULT: 5.30

QUERY: Then CCCCCCCCCCCCCCCCCCNC(=O)[C@H]1CSC(c2ccc(C)cc2)N1 (stereo partly specified) ?
RESULT: 5.72

QUERY: What about CCCCCCCCCCCCCCCCCCNC(=O)[C@H]1CSC(c2ccccc2)N1C(C)=O (stereo partly specified) ?
RESULT: 4.90

QUERY: Lookup CCCCCCCCCCCCCCCCCCNC(=O)[C@H]1CSC(Cc2ccccc2)N1 (stereo partly specified)
RESULT: 5.40

QUERY: Queued: CCCCCCCCCCCCCCCCCCNC(=O)[C@H]1CSC(c2ccccc2)N1.Cl (stereo partly specified)
RESULT: 5.70

QUERY: And what about the compound CCCCCCCCCCCCCCNC(=O)[C@H]1CSC(c2ccccc2)N1.Cl (stereo partly specified) ?
RESULT: 5.89

QUERY: Try the compound CCCCCCCCCCCCCCCCCCNC(=O)[C@H]1CSC(CCCCCCCCCCCC)N1 (stereo partly specified)
RESULT: 4.89

QUERY: What about CCCCCCCCCCCCCCCCCCNC(=O)[C@H]1CSC(c2cccnc2)N1 (stereo partly specified) ?
RESULT: 5.54

* * *

Record form. Attribute: IC50. Fill in for each entry.
Test system: PPC-1
Assay: Antiproliferative activity against prostate cancer PPC-1 cell line using sulforhodamine B(SRB) assay
Format: functional, cell-based
Settings: Homo sapiens
The reply should contain only the number, in µM.

QUERY: Recorded IC50 for CC(=O)O[C@H]1C(=O)[C@@]2(C)[C@H]([C@H](OC(=O)c3ccccc3)[C@]3(O)C[C@H](OC(=O)[C@H](O)[C@@H](NC(=O)c4ccccc4)c4ccccc4)C(C)=C1C3(C)C)[C@]1(OC(C)=O)CO[C@@H]1C[C@@H]2O [PACLITAXEL] , please?
RESULT: 0.0034

QUERY: Subsequent entry: CCCCCCCCCCCCCCCCCCNC(=O)[C@H]1CSC(c2ccc(OC)c(OC)c2)N1 (stereo partly drawn)
RESULT: 0.58

QUERY: Try this molecule too: CCCCCCCCCCCCCCCCCCNC(=O)[C@H]1CSC(c2ccc(NC(C)=O)cc2)N1 (stereo partly drawn)
RESULT: 0.55

QUERY: # iterate: CCCCCCCNC(=O)[C@H]1CSC(c2ccccc2)N1 (stereo partly drawn)
RESULT: 34.7

QUERY: What about this molecule? CCCCCCCCCCCCCCCCCCNC(=O)[C@H]1CSC(c2ccc(Br)cc2)N1 (stereo partly drawn)
RESULT: 3.7

QUERY: What about CCCCCCCCCCCCCCCCCCNC(=O)[C@H]1CSC(C2CCCCC2)N1 (stereo partly drawn) ?
RESULT: 9.3
